assay: recombinant barcode read abundance after kanamycin selection (control-corrected) (log10(CPM+1)); higher = more efficient recombination; sequences stand for … in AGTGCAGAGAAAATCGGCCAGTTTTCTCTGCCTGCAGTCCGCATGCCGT…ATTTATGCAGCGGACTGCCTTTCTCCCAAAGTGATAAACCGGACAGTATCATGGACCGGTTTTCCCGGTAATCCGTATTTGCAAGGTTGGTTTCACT; site = the 11-nt target
endpoint-label: recombinant barcode read abundance (log10)
Output: the number by itself.

| construct-sequence | obs-value |
| --- | --- |
| TGATACCCTTGGGTTCTAACCTGTTGCGTAA [TGATACCCTAC_LTGcore_CT_RTGcore_TT] (site TGATACCCTAC) (LTG core: CT, RTG core: TT) | 0.882 |
| AGGAGGTAATGGGTTCTAACCTGTTGCCTTT [AGGAGGTCTAG_LTGcore_AA_RTGcore_AA] (site AGGAGGTCTAG) (LTG core: AA, RTG core: AA) | 0.0693 |
| AGGAGGTGCTGGGTTCTAACCTGTTGCCTGC [AGGAGGTCTAG_LTGcore_GC_RTGcore_GC] (site AGGAGGTCTAG) (LTG core: GC, RTG core: GC) | 0.911 |

In: Recall and state the measured recombinant barcode read abundance (log10) for CGGTCCCTTTGGGTTCTAACCTGTTGCCAAA [CGGTCCCCTTG_LTGcore_TT_RTGcore_TT] (site CGGTCCCCTTG) (LTG core: TT, RTG core: TT) .
Out: 0.0728

In: Kindly indicate its recorded recombinant barcode read abundance (log10). Item: GCGCGACCATGGGTTCTAACCTGTTGCTTAG [GCGCGACCTAA_LTGcore_CA_RTGcore_CT] (site GCGCGACCTAA) (LTG core: CA, RTG core: CT)
Out: 0.422
